assay: Binding affinity for sigma receptor of guinea pig whole brain using [3H]-[…] radioligand
Threshold-based label: Ki under 10 nM gives 1, Ki not under 10 nM gives -1.

Recorded results for 6 compounds are shown here.
[[record]]
compound = "CC(C)(C)c1ccc(CN2CCC3(CCc4ccccc4C3=O)CC2)cc1"
group = -1

[[record]]
compound = "O=C1c2ccccc2CCC1C1CCN(Cc2ccccc2)CC1 (configuration not stated)"
group = 1

[[record]]
compound = "O=C1c2ccccc2CCC12CCN(Cc1ccccc1)CC2"
group = 1

[[record]]
compound = "O=C1c2ccccc2CCC12CCN(Cc1ccc3ccccc3c1)CC2"
group = -1

[[record]]
compound = "COc1ccc(CN2CCC3(CCc4ccccc4C3=O)CC2)cc1"
group = 1

[[record]]
compound = "O=C1c2ccccc2CCC1C1CCN(CC2CC2)CC1 (configuration not stated)"
group = -1


INPUT: Does O=C1c2ccc(Cl)cc2CCC12CCN(CCc1ccccc1)CC2 have Ki strictly under 10 nM?
OUTPUT: -1

INPUT: Thanks! And CC(C1CC1)N1CCC(C2CCc3ccccc3C2=O)CC1 (configuration not stated) ?
OUTPUT: -1

INPUT: Request: O=C1c2ccccc2CCC1C1CCN(Cc2ccc(C(F)(F)F)cc2)CC1 (configuration not stated)
OUTPUT: -1

INPUT: Repeat for the following compound: O=C1c2ccc(Cl)cc2CCC1C1CCN(CCc2ccccc2)CC1 (configuration not stated)
OUTPUT: 1

INPUT: Same for O=C1c2cccc(F)c2CCC1C1CCN(CCc2ccccc2)CC1 (configuration not stated)
OUTPUT: 1

INPUT: Here is the next compound: O=C1c2ccccc2CCC12CCN(Cc1ccc(F)cc1)CC2
OUTPUT: 1

---

Measured Ki, listed per entry for reference.
experiment: Binding affinity for sigma receptor of guinea pig whole brain using [3H]-[…] radioligand
Answer in nM, number only, no unit symbol.

INPUT: Tell me the measured Ki of CC(C)(C)c1ccc(CN2CCC(C3CCc4ccccc4C3=O)CC2)cc1 (centres undefined) , please.
OUTPUT: 26

INPUT: Let us now turn to O=C1CCc2ccccc2C12CCN(CCc1ccccc1)CC2
OUTPUT: 13

INPUT: Same lookup for O=C1c2ccccc2CCC12CCN(Cc1ccc([N+](=O)[O-])cc1)CC2 , please.
OUTPUT: 1.9

INPUT: Please answer likewise for O=C1c2ccccc2CCC12CCN(CC1CCCCC1)CC2
OUTPUT: 2

---

test: Binding affinity for sigma receptor of guinea pig whole brain using [3H]-[…] radioligand
quantity: pKi
Please express pKi as -log10 of the molar concentration.

[[record]]
molecule = "O=C1c2ccccc2CCC12CCN(Cc1ccc(C(F)(F)F)cc1)CC2"
quantity = "pKi"
recorded_number = 7.62

[[record]]
molecule = "O=C1c2ccccc2CCC1C1CCN(Cc2ccc(F)cc2)CC1 (stereo unspecified)"
quantity = "pKi"
recorded_number = 7.96

[[record]]
molecule = "COc1ccc2c(c1)CCC(C1CCN(Cc3ccccc3)CC1)C2=O (stereo unspecified)"
quantity = "pKi"
recorded_number = 8.15


INPUT: Looking for the measured pKi of O=C1c2ccccc2CCC1C1CCN(CCc2ccccc2)CC1 (stereo unspecified) , can you help?
OUTPUT: 8.00

INPUT: What do you have for O=C1c2ccc(F)cc2CCC1C1CCN(Cc2ccccc2)CC1 (stereo unspecified) ?
OUTPUT: 8.05

INPUT: Next molecule: Cc1ccc(CN2CCC(C3CCc4ccccc4C3=O)CC2)cc1 (stereo unspecified)
OUTPUT: 8.10

Taken from BindingDB's records for doi:10.1021/jm00029a008.
